// data source = ChEMBL document CHEMBL5143554

assay: AUC in ICR mouse at 1 mg/kg, po; format: ADME, organism-based; parameters: dose 1 mg/kg, route po; conditions: in vivo
Metric: AUC (ng·h/mL)

O=C(O)CO[C@H]1CCN(c2cc(C(F)(F)F)cc(C(F)(F)F)c2)C1 ... 22000
O=C(O)CO[C@@H]1CCN(c2cc(C(F)(F)F)cc(C(F)(F)F)c2)C1 ... 17900
